We begin with a simple list: items and their reported GI50.
- System: SF-295
- PROCEDURE SUMMARY: NCI tumour cell line growth inhibition, 48 h
Calls of active or inactive are those of the source. Rule as the data show it: active = GI50 up to about 1.1 µM and inactive = higher.

Known results for compounds:
{"COMPOUND": "N#Cc1c(N)nc2c(C#N)c(N)cc3c2c1Oc1ccccc1-3", "GI50": "> 100 µM (inactive)"}
{"COMPOUND": "O=C(O/N=C1/CCC/C1=C\\c1ccccc1)c1ccccc1", "GI50": "> 100 µM (inactive)"}
{"COMPOUND": "CN(CCCNC(=O)c1n[nH]c2c1ccc1ccccc12)CCCNC(=O)c1n[nH]c2c1ccc1ccccc12", "GI50": "17.3 µM (inactive)"}
{"COMPOUND": "CC(=O)Oc1c2c(c(OC(C)=O)c3c1n(C(C)=O)c1ccccc1n3C(C)=O)n(C(C)=O)c1ccccc1n2C(C)=O", "GI50": "8.81 µM (inactive)"}
{"COMPOUND": "COC1=C(Br)[C@H](O)[C@@]2(C=C1Br)CC(C(=O)NCCCOc1c(Br)cc(C(O)CNC(C)=O)cc1Br)=NO2 (stereo partly drawn) [APLYSINAMISINE III]", "GI50": "> 10 µM (inactive)"}
{"COMPOUND": "CC1=C2C3OC(=O)C(C)C3C(O)C[C@@]2(C)C(=O)CC1 (stereo partly drawn)", "GI50": "> 100 µM (inactive)"}
{"COMPOUND": "CSC1NC(c2ccc(Cl)cc2)=C(C#N)C(=O)N1C1OCC(OC(C)=O)C(OC(C)=O)C1OC(C)=O (stereo not drawn)", "GI50": "> 100 µM (inactive)"}
{"COMPOUND": "C#CCOC(=O)C(=[N+]=[N-])C(=O)CC(C)C", "GI50": "> 10 µM (inactive)"}
{"COMPOUND": "Clc1ccc(C2=C(c3ccccc3)C(c3ccc(Cl)cc3)N3C(=N[C@H]4CCCC[C@@H]43)N2)cc1 (stereo partly drawn)", "GI50": "11.6 µM (inactive)"}
{"COMPOUND": "CC1(C)OC(=O)[C@@](C)([C@H](O)c2ccccc2)O1", "GI50": "> 100 µM (inactive)"}

Entry under test: CC(C)(Oc1ccc2c(=O)cc(-c3ccc(Cl)cc3)oc2c1)C(=O)Nc1c(Cl)cccc1Cl . Its GI50 was > 100 µM (inactive)

Entry under test: COc1cc(CNNC(N)=S)cc(OC)c1OC . Its GI50 was > 100 µM (inactive)

Entry under test: Cc1ccc(/C=C/C(=O)c2sc(-n3nc(-c4ccccc4)cc3-c3ccccc3)nc2C)cc1 . Its GI50 was > 100 µM (inactive)
